Target: Hexose transporter 1 (Plasmodium falciparum) (UniProt O97467)
Assay: ST_JUDE_LEISH: Cytotoxicity at 2uM final concentration against transgenic Leishmania Mexicana promastigotes LmPfHT that are glucose transport deficient and complemented with the Plasmodium falciparum hexose transporter. Activity is measured by DNA content using SYBR green in vitro
Type: functional
Attribute Measured: inhibition (%)
Entry rule: numbers only, all in %.

Below, 5 molecules whose answers are already recorded.
Cc1cc(NC(=O)NCCN2CCC(NC(=O)c3ccc(Cl)cc3)CC2)c2ccccc2n1
1.76
CC(C)(C)c1ccc(CN2CCCCC(NC(=O)c3cc(-c4cccc(Cl)c4)cs3)C2)cc1 (stereo not given)
-0.87
Fc1ccccc1C=NNc1ccnc2cc(Cl)ccc12
7.17
COc1ccc(NC(=O)c2c(NC(=O)c3cccs3)sc3c2CCCC3)cc1
2.45
COc1ccc(C2CC(=O)C3=C(C2)NC(C)=C(C(=O)OC(C)C)C3c2ccccc2F)cc1OC (stereo not given)
2.16

[ask] Quick check: inhibition of CC1CCCN1Cc1cccc(-c2ccc(C(=O)NCCOc3ccccc3)s2)c1 (stereo not given) ?
[reply] 38.9

[ask] Please give the result for CCc1cn2c3c(cc(C(=O)N[C@@H](Cc4cc(F)cc(F)c4)[C@H](O)CNC4CC4)cc13)N(C)S(=O)(=O)CC2 too.
[reply] 2.48

[ask] What about this molecule? Cc1cnc(NCC2CCCCC2)nc1N[C@@H](CC(C)C)C(=O)Nc1ccccc1
[reply] 1.5

[ask] Let us now turn to COc1ccc(-c2cccc(NC(=O)c3cccc(C#N)c3)c2)cc1CN(C)CCO
[reply] 5.06

[ask] Now this one: CCCC1N=C(N)N=C(N)N1c1ccc(C)cc1 (stereo not given)
[reply] 2.51

[ask] For O=C1c2ccc([N+](=O)[O-])cc2C(=O)N1c1ccc2[nH]ncc2c1 then?
[reply] 1.54

###

Target: Solute carrier family 2, facilitated glucose transporter member 1 (Homo sapiens)
Assay: ST_JUDE_LEISH: Cytotoxicity at 2uM final concentration against transgenic Leishmania Mexicana promastigotes LmGLUT1 that are glucose transport deficient and complemented with the human glucose transporter GLUT1. Activity is measured by DNA content using SYBR green in vitro
Assay type: functional
Each record here notes measured inhibition.
Enter the number, and then the unit.

C/C=C/COc1ccc(-c2c(C)[nH]c(C)c(Cl)c2=O)cc1
4.66%
N#Cc1ccc2c(c1)CN(CCC1CCC(NC(=O)c3cc4cnccc4[nH]3)CC1)CC2 (centres undefined)
5.36%
CNC(=O)CSc1nnc(-c2ccc(C)cc2)c(-c2ccc(C)cc2)n1
2.46%
Cc1nc2c(c(C)nn2C(C)(C)C)c(C)c1CCC(=O)Nc1ccc(CN2CCCC2)cc1
9.93%
CCCc1cc(OC)c(CC2c3cccc(O)c3CCN2C)cc1OC (centres undefined)
0.68%
O=C(CCc1cccnc1)Nc1cccc(-c2ccc(-c3nc4cc(C(F)(F)F)ccc4[nH]3)s2)c1
-0.82%

[ask] # input molecule: COc1ccc(CCNc2nc(NCCc3cnc[nH]3)nc(NCc3cccc4ccccc34)n2)cc1OC ; wanted: its inhibition
[reply] 7.46%

[ask] Try CC1CN(S(=O)(=O)c2ccc(NC(=O)c3cc(-c4ccccc4O)n[nH]3)cc2)CC(C)O1 (centres undefined) next.
[reply] 4.88%

[ask] How about Cc1cnc(-c2ccc(NC(=O)N3CCc4cc5nccc(N6CCN7CCC[C@H]7C6)c5cc43)c3ccccc23)o1 ?
[reply] 3.29%

[ask] CCN(CC)/C(=N/C(=N)Nc1ccc(Br)cc1)NCCCCCCN/C(=N\C(=N)Nc1ccc(Br)cc1)N(CC)CC , same question.
[reply] -1.08%

[ask] Another molecule to check: COc1ccc(Cl)cc1NC(=O)C(C)Nc1ccc(-c2ccccc2)cc1 (centres undefined)
[reply] 2.84%

[ask] Field entry: COc1cc(Cc2cnc(N)nc2N)cc(OC)c1OCCCCC(=O)O
[reply] -0.54%

[ask] Now consider O=C(Nc1ccc(-c2cccc(-c3nc4cc(F)ccc4[nH]3)c2)cc1)Nc1ccc(Cl)c(Cl)c1 and answer again.
[reply] 3.29%

[ask] Now the molecule CN(C)CCN(C)Cc1ccc(-c2ccc(NS(=O)(=O)c3cccc4cccnc34)cc2)cc1
[reply] 9.5%
